Catalogue of TGI readings, one per entry.
- Test system: SF-295 CNS
- Test Summary: NCI tumour cell line growth inhibition, 48 h

Consider the following illustrative entries.
compound=O=C1/C(=C\C(Cl)=C/c2ccc([N+](=O)[O-])cc2)SC(=S)N1CCc1ccc(O)cc1 endpoint_result="1.06 µM"
compound="Nc1ncnc(NC2C=C(CO)C(O)C2O)c1[N+](=O)[O-] (centres undefined)" endpoint_result="> 100 µM"
compound="C/C=C/C=N/N(C(=O)c1cc([N+](=O)[O-])cc([N+](=O)[O-])c1)C1=NC(c2ccccc2)C(c2ccccc2)=NN1 (centres undefined)" endpoint_result="> 100 µM"

Need TGI of COc1ccc(-c2c(C#N)c(-c3ccc(C)cc3)n(NS(=O)(=O)c3ccccc3)c(=O)c2C#N)cc1 , thanks. > 100 µM

----------
As a worked illustration, we turn to GI50 data collected for HOP-92 NSCLC.

molecule="COC(=O)C(C)NP(=O)(OCc1ccc(Cn2cnc3c(=O)[nH]c(N)nc32)cc1)Oc1ccccc1 (configuration not stated)" property_name=GI50 endpoint_result="> 100 µM"
molecule=C/C(CC(=O)NNc1ccc([N+](=O)[O-])cc1)=N\Nc1ccc([N+](=O)[O-])cc1 property_name=GI50 endpoint_result="7.94 µM"
molecule=CN(C)CCCN(c1nc(C(Cl)(Cl)Cl)ns1)c1nc(C(Cl)(Cl)Cl)ns1 property_name=GI50 endpoint_result="1.64 µM"
molecule=Cc1cccc2c(N=Nc3ccc(S(N)(=O)=O)cc3)c(O)[nH]c12 property_name=GI50 endpoint_result="> 25 µM"
molecule=Cc1n[nH]c(=S)n1/N=C/c1ccc(F)c(Oc2ccccc2)c1 property_name=GI50 endpoint_result="63.3 µM"

Need GI50 of NC1=C(Cl)C(=O)c2ccc(S(N)(=O)=O)cc2C1=O , thanks. 2.04 µM

What do we get for COc1ccc(N(CC(=O)NCCC[Te]c2ccccc2)C(=O)CCSC2=C(C)C(=O)c3ccccc3C2=O)cc1 ? 1.72 µM

----------
Catalogue of TGI readings, one per entry.
- Tested on: RXF 393 renal
- Test Summary: NCI tumour cell line growth inhibition, 48 h
Numeric only. Scale: µM

molecule=C=C1C(=O)O[C@H]2[C@H]1CC/C(COC(=O)CCCCCCCCC(=O)OC/C1=C/CC[C@@]3(C)O[C@H]3[C@H]3OC(=O)C(=C)[C@@H]3CC1)=C\CC[C@@]1(C)O[C@@H]21 unit_abbreviation=µM endpoint_result=3.42

Param readout = TGI; param system = RXF 393 renal; param query = CCOC(=O)c1ccc(N(CCOS(C)(=O)=O)CCOS(C)(=O)=O)cc1C ; response: value 33.3

What do we get for CCOC(=O)c1nc2ccccc2nc1NCc1ccc(OC)cc1 ? 71.5

What do we get for CCOC(=O)c1sc2nc(SC)nc3c2c1N=CN3c1ccccc1Cl ? 68.6

What do we get for Cc1cc(N2CCCCCC2)nc(NC2CCCC(Nc3ccnc4cc(Cl)ccc34)C2)n1 (stereo not drawn) ? 2.58

What do we get for C=C[C@]1(C)CCC2=C(CCC3C2(C)CCC[C@]3(C)CO)C1 (stereo partly drawn) ? 84.4

----------
- Test system: HCT-15 colon
- Test Summary: NCI tumour cell line growth inhibition, 48 h
Property Name: TGI

molecule=COC(=O)c1ccc(N=NN(C)COc2ccc(C#N)cc2)cc1 tested_system="HCT-15 colon" endpoint_result="> 100 µM"
molecule=C=C1C(=O)O[C@H]2[C@H]1CC/C(Cn1cc(Cn3ccc4ccccc43)nn1)=C\CC[C@@]1(C)O[C@@H]21 tested_system="HCT-15 colon" endpoint_result="2.77 µM"
molecule=COc1ccc(/C=C2\CN(Cc3cn(CCCNc4ccnc5cc(Cl)ccc45)nn3)C/C(=C\c3ccc(OC)c(OC)c3)C2=O)cc1OC tested_system="HCT-15 colon" endpoint_result="5.02 µM"
molecule="CC1(C)CC(=O)C2=C(C1)NC(SSC1=C(C#N)C(c3ccc(F)cc3)C3=C(CC(C)(C)CC3=O)N1)=C(C#N)C2c1ccc(F)cc1 (stereo not drawn)" tested_system="HCT-15 colon" endpoint_result="64 µg/mL"
molecule=Cc1cccc(N=Nc2c(C)nn(C(=O)CC(=O)Nc3ccccc3)c2C)c1 tested_system="HCT-15 colon" endpoint_result="> 100 µM"

Need TGI of O=S(=O)(O)c1cccc2c(N=Nc3c(O)ccc4ccccc34)cccc12 , thanks. > 100 µM

What do we get for O=C(NC1CCC(=O)N1C(=O)OCc1ccccc1)OCc1ccccc1 (stereo not drawn) ? > 100 µM
